Values compiled from PubChem BioAssay (NCI).

# Test system: CAKI-1 renal
# test: NCI-60 one-dose screen, 48 h (100 = growth as untreated, 0 = no growth, -100 = all killed)
# details: 10 µM
About 83,000 compounds went through this panel and 20% of them were active in at least one assay; those are over-represented in the sample as a whole.
Parameter growth: see the listing below.
Write it as a number; the unit % goes unstated.

A selection of reference data follows.
chemical.smiles | growth [%]
O=C(COc1ccc(Cl)cc1)N1CCN(Cc2ccc3c(c2)OCO3)CC1 | 76.6
COc1ccc(CCNC=O)cc1OC | 100
CSc1ccc(C(=O)C[n+]2cccc(C)c2)cc1 | 102
Cc1ccc2nc(-c3ccc(-n4on4-c4ccc(/C=C/c5ccc(-n6on6-c6ccc(-c7nc8ccc(C)cc8s7)cc6)cc5S(=O)(=O)O)c(S(=O)(=O)O)c4)cc3)sc2c1 | 106
COc1cc(NS(=O)(=O)c2ccc(N)cc2)ncn1 | 94.6

Continue with the next compound.
# get_value(readout= growth, system= CAKI-1 renal) for CN(C)c1ccc(/C=c2\s/c(=C\C(=O)C(C)(C)C)[nH]c2=O)cc1 97.8
